ASSAY PROCEDURE: chemical genetic growth profiling, strain panel (AID 1159580);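 note: tested at 20 µM; growth read once vehicle control cultures reached saturation at 30 °C; 1 = growth at the plate median or of vehicle wells; lower values mean less growth of the strain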
ASSAY CONDITIONS: S. cerevisiae deletion strains, growth OD, locus YBR021W, strain FUR4
About 2,000 (36%) of roughly 5,500 compounds were called active. About 18% were inconclusive and are not listed. Cut-off read from the data, not from the text of the source: active = normalized growth mostly below about 0.91 (no sharp cut-off); inconclusive = no clear call, values can overlap the other calls; inactive = mostly above about 0.92. The list shows a part of the results.
Choose the fitting class; nothing outside yes (1) (active), no (0) (inactive) is accepted.

Here are 10 compounds together with their reported answers.
[[record]]
compound = "CCC(=O)c1c(O)cc(O)cc1O"
category_label = "no (0)"

[[record]]
compound = "COc1ccc(Cl)cc1C(=O)NCCc1ccc(S(=O)(=O)NC(=O)NC2CCCCC2)cc1"
category_label = "no (0)"

[[record]]
compound = "CCOC(=O)c1c(C)cc(O)cc1O"
category_label = "no (0)"

[[record]]
compound = "C[C@@H]1CC[C@@]2(NC1)O[C@H]1C[C@H]3C4CC=C5C[C@@H](O)CC[C@]5(C)C4CC[C@]3(C)C1[C@@H]2C (stereo partly drawn)"
category_label = "yes (1)"

[[record]]
compound = "C[C@]12CCC3c4ccc(O)cc4CCC3C1CC[C@@H]2O (stereo partly drawn)"
category_label = "yes (1)"

[[record]]
compound = "CCCCOc1cc(C(=O)NCCN(CC)CC)c2ccccc2n1"
category_label = "no (0)"

[[record]]
compound = "CC12CCC3c4ccc(OC(=O)c5ccccc5)cc4CCC3C1CCC2O (stereo not drawn)"
category_label = "no (0)"

[[record]]
compound = "C[C@@H]1CC[C@@]2(OC1)O[C@H]1CC3C4CC[C@H]5C[C@@H](O)CC[C@]5(C)C4CC[C@]3(C)[C@H]1[C@@H]2C (stereo partly drawn)"
category_label = "no (0)"

[[record]]
compound = "CC(=O)OC1CN2CCC1CC2 (stereo not drawn)"
category_label = "no (0)"

[[record]]
compound = "Oc1cc2c(cc1O)C1c3ccc(O)c(O)c3OCC1(O)C2 (stereo not drawn)"
category_label = "no (0)"


Request: Hi, do you know how `CNC(=O)Oc1cccc2c1OC(C)(C)O2` came out in this test?
Response: no (0)

Request: Which outcome was assigned to `COC(=O)c1c(C)cc(OC)cc1O` in this test?
Response: no (0)

Request: Tell me the recorded outcome of this test for `CC[n+]1c(-c2ccccc2)c2cc(N)ccc2c2ccc(N)cc21` .
Response: no (0)

Request: Recorded call for `NC(=NCCC[C@H](N)C(=O)O)N[N+](=O)[O-]` ?
Response: no (0)

Request: Name the outcome recorded for `Cc1cc(OC(=O)c2c(C)cc(O)cc2O)cc(O)c1C(=O)O` in the assay.
Response: no (0)

Request: What classification did CC1CCC2(OC1)OC1CC3C4CC[C@H]5C[C@@H](O)CC[C@]5(C)C4CC(=O)[C@]3(C)C1C2C (stereo partly drawn) end up with in this test?
Response: no (0)

Request: How was `O=C(O)C1=C[C@@H](O)[C@@H](O)[C@H](O)C1` classified in this test?
Response: no (0)

Request: Dear all, I need the recorded test outcome for CC(C)N(CCC(C(N)=O)(c1ccccc1)c1ccccn1)C(C)C (stereo not drawn) , thank you.
Response: no (0)

---

normalized growth reference
ASSAY PROCEDURE: chemical genetic growth profiling, strain panel (AID 1159580);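 note: tested at 20 µM; growth read once vehicle control cultures reached saturation at 30 °C; 1 = growth at the plate median or of vehicle wells; lower values mean less growth of the strain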
ASSAY CONDITIONS: S. cerevisiae deletion strains, growth OD, locus YER002W, strain NOP16, stronger effect = lower value
About 2,000 (36%) of roughly 5,500 compounds were called active. About 18% were inconclusive and are not listed. The list shows a part of the results.
Lab note: record the figure alone, no unit after it.

[[record]]
compound = "CN(C)c1nc(N)c(C(=O)N=C(N)N)nc1Cl"
measurement_label = "normalized growth"
numeric_value = 1.01

[[record]]
compound = "S=C=Nc1cccc(C2(N3CCCCC3)CCCCC2)c1"
measurement_label = "normalized growth"
numeric_value = 1.01

[[record]]
compound = "N#C/C(=C\\c1ccc(O)c(O)c1)C(=O)NCc1ccccc1"
measurement_label = "normalized growth"
numeric_value = 1.01


Request: Return normalized growth for the following compound: CCCC(C)(COC(N)=O)COC(=O)NC(C)C (configuration not stated)
Response: 0.995

Request: Determine its reported normalized growth: `Cc1ccc(S(=O)(=O)N[C@@H](CCCCN)C(=O)CCl)cc1`
Response: 1.02

Request: Report normalized growth, nothing else, for this compound: CC(COc1ccc(/C=C/c2ccccc2)cc1)[N+](C)(C)C (configuration not stated)
Response: 0.989

Request: In one line, give reported normalized growth of the entry Nc1nc(Nc2ccccc2)nc2c1ncn2[C@@H]1O[C@H](CO)[C@H](O)C1O (some centres not stated) .
Response: 1

Request: Tell me its normalized growth given `C1COC(NC(C2CC2)C2CC2)=N1` as the entry.
Response: 0.995

Request: Identify normalized growth associated with the compound COc1cc(C(O)CO)ccc1OS(=O)(=O)O (configuration not stated)
Response: 0.991

Request: Quote normalized growth reported for `CC(C)[C@@]1(NC(=O)[C@@H]2C[C@@H]3c4cccc5[nH]cc(c45)C[C@H]3N(C)C2)O[C@@]2(O)[C@@H]3CCCN3C(=O)[C@H](Cc3ccccc3)N2C1=O` please.
Response: 0.981

Request: Please look at this compound and report its normalized growth: CCC1(O)CC2CN(CCc3c([nH]c4ccccc34)[C@@](C(=O)OC)(c3cc4c(cc3OC)N(C=O)C3[C@]45CCN4CC=C[C@@](CC)([C@@H](OC(C)=O)[C@]3(O)C(=O)OC)[C@H]45)C2)C1 (some centres not stated)
Response: 1

Request: Determine from records and report normalized growth for CC(C)(C)NCC(O)c1cc(O)cc(O)c1 (configuration not stated)
Response: 1.01

Request: Report normalized growth for `NC(=O)CN1CCCC1=O`
Response: 1

Request: Provide normalized growth value for the following compound: `CCCn1c(=O)c2[nH]c(C3CCCC3)nc2n(CCCOC(=O)c2ccc(S(=O)(=O)F)cc2)c1=O`
Response: 1

Request: Quote normalized growth reported for `NC(N)=NC(=O)c1nc(Cl)c(N2CCCCCC2)nc1N` please.
Response: 1.02

Request: Identify measured normalized growth associated with `S=C(NC1CCCCC1)N1CCC(c2cnc[nH]2)CC1`
Response: 0.994

Request: Complete the entry with normalized growth for CSc1nc(N)c2ncn([C@@H]3O[C@H](COP(=O)(O)OP(=O)(O)OP(=O)(O)O)[C@H](O)C3O)c2n1 (some centres not stated)
Response: 0.998

Request: # return recorded normalized growth for input `NC(N)=NC(=O)c1nc(Cl)c(N)nc1N`
Response: 1

Request: Supply normalized growth value. Item: `COc1cc(OC)c(/C=C2/C(=O)Nc3ccccc32)c(OC)c1`
Response: 1.02
